system: P388/ADR cells; experiment: Combination of antifolates with FU and LV on P388/ADR proliferation; format: cell-based, murine; settings: P388/ADR; antifolate 1 nM 24 hours, 5 μM FU final 4 hours
Counter-ions that a name gives are not always drawn.

>  <COMPOUND>
Cc1nc(N)nc(N)c1N1CCN(c2ccc(/C=N/OCCN)cc2)CC1 [Example 12, dihydrochloride]

>  <Antifol + FU>
30% of control

$$$$
>  <COMPOUND>
CCOC(=O)CCC(NC(=O)c1ccc(N2CCN(c3c(N)nc(N)nc3CC)CC2)cc1)C(=O)OCC (stereo not shown)

>  <Antifol + FU>
40% of control

$$$$
>  <COMPOUND>
Cc1nc(N)nc(N)c1N1CCN(c2ccc(C(=O)O)cc2)CC1

>  <Antifol + FU>
30% of control

$$$$
>  <COMPOUND>
Cc1nc(N)nc(N)c1N1CCN(c2ccc(C(=O)NN)cc2)CC1

>  <Antifol + FU>
48% of control

$$$$
